target: Tyrosine-protein kinase ABL1 (Homo sapiens) (UniProt P00519); conditions: at 10 µM
Sequence (P00519 whole entry): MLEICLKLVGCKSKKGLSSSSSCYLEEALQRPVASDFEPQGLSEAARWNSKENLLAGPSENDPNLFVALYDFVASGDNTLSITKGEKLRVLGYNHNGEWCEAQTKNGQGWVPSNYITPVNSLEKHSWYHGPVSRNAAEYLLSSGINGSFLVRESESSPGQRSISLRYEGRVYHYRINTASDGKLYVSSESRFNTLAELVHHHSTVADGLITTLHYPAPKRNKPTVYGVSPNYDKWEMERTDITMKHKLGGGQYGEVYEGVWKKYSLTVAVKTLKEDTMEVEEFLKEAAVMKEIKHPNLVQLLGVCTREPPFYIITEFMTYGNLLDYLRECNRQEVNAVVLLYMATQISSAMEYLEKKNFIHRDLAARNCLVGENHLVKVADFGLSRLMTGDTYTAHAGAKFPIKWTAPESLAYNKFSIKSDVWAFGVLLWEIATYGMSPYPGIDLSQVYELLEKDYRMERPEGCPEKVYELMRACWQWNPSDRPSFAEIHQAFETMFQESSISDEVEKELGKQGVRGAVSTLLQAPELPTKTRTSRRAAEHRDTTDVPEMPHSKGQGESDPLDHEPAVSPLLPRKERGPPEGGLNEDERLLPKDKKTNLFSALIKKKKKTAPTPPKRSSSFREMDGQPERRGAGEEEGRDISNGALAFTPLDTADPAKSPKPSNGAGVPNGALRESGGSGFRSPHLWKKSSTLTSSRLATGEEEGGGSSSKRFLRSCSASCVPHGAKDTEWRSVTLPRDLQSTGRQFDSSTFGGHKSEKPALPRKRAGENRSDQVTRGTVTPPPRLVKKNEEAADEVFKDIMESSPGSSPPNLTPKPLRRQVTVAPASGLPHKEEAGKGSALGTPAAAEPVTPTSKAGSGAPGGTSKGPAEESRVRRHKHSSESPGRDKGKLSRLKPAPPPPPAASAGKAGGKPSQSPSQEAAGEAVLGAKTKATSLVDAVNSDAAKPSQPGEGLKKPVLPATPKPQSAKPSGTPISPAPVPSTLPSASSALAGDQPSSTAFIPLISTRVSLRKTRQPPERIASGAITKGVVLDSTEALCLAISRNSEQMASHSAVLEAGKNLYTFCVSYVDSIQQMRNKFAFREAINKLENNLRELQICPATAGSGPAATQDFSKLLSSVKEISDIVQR
parameter-measured: residual activity
Returns: string containing the number followed by the unit.

Would you mind telling me what residual activity value was observed for CC#CC(=O)Nc1cc2c(Nc3ccc(F)c(Cl)c3)ncnc2cn1 ?
91%

Subsequent entry: Cc1nc2cc3nc(-c4cccs4)cnc3cc2n1C
52%

Subsequent entry: CCOc1cc2ncnc(Nc3cccc(Br)c3)c2cc1OCC
5%

Subsequent entry: Nc1ccc2ncnc(NCCc3ccc(Oc4ccccc4)cc3)c2c1
101%

Subsequent entry: COc1cc2ncnc(Nc3ccc(NC(=O)c4ccccc4)cc3)c2cc1OC
81%

Dear colleague, could you send me residual activity for each of the items below? Thanks.
1. Ic1cccc(CSc2nnc(-c3ccncc3)o2)c1
2. O=C1Nc2cc(Br)ccc2/C1=C1/Nc2ccccc2/C1=N\O
3. COc1ccc(C(=O)Nc2sc3c(c2C(N)=O)CCCC3)cc1OC
4. CC[n+]1c(/C=C/N(C)c2ccccc2)n(-c2ccccc2)c2ccc(-c3nc4ccccc4s3)cc21

1. 70%
2. 6%
3. 86%
4. 146%

* * *

target: Dual specificity mitogen-activated protein kinase kinase 1 (Homo sapiens); conditions: at 10 µM
Description: Millipore: Percentage of residual kinase activity of MAP2K1 at 10uM relative to control. Control inhibitor: Phosphoric acid* at 0.3uM. Buffer: 50 mM Tris pH 7.5, 0.2 mM EGTA, 0.1% ?-mercaptoethanol, 0.01% Brij-35
parameter-measured: residual activity (%)
Answers are plain numbers, in %.

Recorded results for 4 compounds are shown here.
Would you mind telling me what residual activity value was observed for O=[N+]([O-])c1ccc(-c2nc(-c3ccc(F)cc3)c(-c3ccncc3)[nH]2)cc1 ?
127

Subsequent entry: CO[C@H]1[C@@H](OC)C[C@H](C)[C@@H](OC)C2=CC(=O)C=C(NC(=O)/C(C)=C/C=C/[C@H](OC)[C@@H](OC(N)=O)/C(C)=C/[C@@H]1C)C2=O
95

Subsequent entry: CN(C)c1ccc(/C=C2\C(=O)Nc3ccccc32)cc1
73

Subsequent entry: C[C@@H](N)[C@H]1CC[C@H](C(=O)Nc2ccncc2)CC1
106

Attention now turns to another entry.
Would you mind telling me what residual activity value was observed for COc1cc2ncnc(Nc3ccc(O)c(Br)c3)c2cc1OC ?
80

* * *

target: Serine/threonine-protein kinase N2 (Homo sapiens) (UniProt Q16513); conditions: at 1 µM
Sequence (Q16513 whole entry, looked up): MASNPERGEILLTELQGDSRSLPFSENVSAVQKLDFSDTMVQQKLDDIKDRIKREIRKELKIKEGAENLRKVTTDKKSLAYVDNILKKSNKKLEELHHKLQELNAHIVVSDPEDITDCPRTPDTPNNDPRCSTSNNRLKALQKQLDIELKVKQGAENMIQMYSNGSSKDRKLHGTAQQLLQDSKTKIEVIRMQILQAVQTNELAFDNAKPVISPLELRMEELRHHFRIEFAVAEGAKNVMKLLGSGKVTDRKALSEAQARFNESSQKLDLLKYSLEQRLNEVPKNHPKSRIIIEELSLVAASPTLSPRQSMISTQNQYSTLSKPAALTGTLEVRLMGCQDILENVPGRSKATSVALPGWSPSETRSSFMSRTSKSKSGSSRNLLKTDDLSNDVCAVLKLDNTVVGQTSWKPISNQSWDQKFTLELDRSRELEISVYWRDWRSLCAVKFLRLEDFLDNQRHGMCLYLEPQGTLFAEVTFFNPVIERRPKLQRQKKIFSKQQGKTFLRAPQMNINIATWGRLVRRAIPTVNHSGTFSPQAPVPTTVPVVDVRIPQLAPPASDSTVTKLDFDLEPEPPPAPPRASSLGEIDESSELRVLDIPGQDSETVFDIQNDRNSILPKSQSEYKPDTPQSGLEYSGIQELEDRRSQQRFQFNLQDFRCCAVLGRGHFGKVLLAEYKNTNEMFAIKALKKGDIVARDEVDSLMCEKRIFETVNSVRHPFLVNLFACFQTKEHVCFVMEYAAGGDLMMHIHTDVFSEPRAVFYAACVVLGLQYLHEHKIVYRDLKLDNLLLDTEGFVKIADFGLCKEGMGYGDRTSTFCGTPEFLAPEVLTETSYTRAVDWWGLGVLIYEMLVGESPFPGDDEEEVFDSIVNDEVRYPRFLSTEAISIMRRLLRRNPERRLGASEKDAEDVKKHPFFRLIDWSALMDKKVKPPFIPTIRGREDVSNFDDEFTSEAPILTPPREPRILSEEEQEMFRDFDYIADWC
What residual activity was measured for each of the following?
One number for each entry, in %.

Would you mind telling me what residual activity value was observed for CN(C)CCCn1cc(C2=C(c3c[nH]c4ccccc34)C(=O)NC2=O)c2ccccc21 ?
23

Subsequent entry: N#CCCc1ccc2c(c1)-c1[nH]c3ccc([N+](=O)[O-])cc3c1CC(=O)N2
57

Subsequent entry: O=C(Nc1cccc(Nc2nccc(Nc3cccc(C(F)(F)F)c3)n2)c1)C1CC1
106

Subsequent entry: Ic1cccc(CSc2nnc(-c3ccncc3)o2)c1
83

Subsequent entry: CCC(=O)Nc1ccc2ncnc(Nc3cccc(Br)c3)c2c1
90

Subsequent entry: Cn1cc(/C=C2\C(=O)Nc3ccc(S(N)(=O)=O)cc32)c2ccccc21
58

Dear colleague, could you send me residual activity for each of the items below? Thanks.
1. Oc1ccc(Nc2nc(-c3ccc(Cl)cc3)cs2)cc1
2. CC(C)n1cnc2c(NCc3ccccc3)nc(NCCCO)nc21
3. CC[n+]1c(/C=C/N(C)c2ccccc2)n(-c2ccccc2)c2ccc(-c3nc4ccccc4s3)cc21
4. O=C(Nc1cccc(Nc2cc(Nc3cccc(C(F)(F)F)c3)ncn2)c1)C1CC1

1. 110
2. 110
3. 94
4. 93

* * *

What residual activity was measured for each of the following?
target: Dual specificity protein kinase CLK2 (Homo sapiens); conditions: at 10 µM
Give bare numbers, in %.

Dear colleague, could you send me residual activity for each of the items below? Thanks.
1. CN(C)c1ccc(/C=C2\C(=O)Nc3ccccc32)cc1
2. Oc1ccc(Nc2nc(-c3ccc(Cl)cc3)cs2)cc1
3. Cn1cc(/C=C2\C(=O)Nc3ccc(S(N)(=O)=O)cc32)c2ccccc21
4. Nc1n[nH]c2nnc(-c3c(-c4ccccc4)nn4ccccc34)cc12
5. CC(C)n1cnc2/c(=N/c3cccc(Cl)c3)nc(NCCO)[nH]c21

[48, 101, 14, 84, 6]

Dear colleague, could you send me residual activity for each of the items below? Thanks.
1. c1ccc(-c2n[nH]cc2-c2ccnc3ccccc23)nc1
2. COc1ccc(CNc2nc(N(CCO)CCO)nc3c2ncn3C(C)C)cc1
3. Oc1n[nH]c2nnc(-c3c(-c4ccccc4)nn4ccccc34)cc12
4. CC(=O)c1ccc(N2CCOCC2)cc1O
5. Nc1ccc2ncnc(NCCc3ccc(Oc4ccccc4)cc3)c2c1

[86, 18, 118, 101, 69]

Would you mind telling me what residual activity value was observed for C[C@@H](N)[C@H]1CC[C@H](C(=O)Nc2ccncc2)CC1 ?
66

* * *

target: Serine/threonine-protein kinase mTOR (Homo sapiens); conditions: at 10 µM
parameter-measured: residual activity (%)
Give bare numbers, in %.

Recorded results for 5 compounds are shown here.
Lab note: need residual activity with Serine/threonine-protein kinase mTOR (Homo sapiens) for entry Cn1cnc2cc3c(Nc4cccc(Br)c4)ncnc3cc21 , please look it up.
105

Subsequent entry: Cc1ccc(NC2=CC(=O)c3sc(C)nc3C2=O)cc1
99

Subsequent entry: O=C1c2ccccc2-[n+]2ccc3c([nH]c4ccccc43)c21
103

Subsequent entry: COc1cc2ncnc(N3CCN(C(=O)Nc4ccc(Oc5ccccc5)cc4)CC3)c2cc1OC
102

Subsequent entry: Nc1nc(Nc2ccc(S(N)(=O)=O)cc2)nn1C(=S)Nc1c(F)cccc1F
89

Dear colleague, could you send me residual activity for each of the items below? Thanks.
1. CCOc1cc2ncnc(Nc3cccc(Br)c3)c2cc1OCC
2. N#C/C(=C(\N)Sc1ccc(N)cc1)c1ccccc1C(F)(F)F
3. O=C(Nc1cccc(Nc2cc(Nc3cccc(C(F)(F)F)c3)ncn2)c1)C1CC1

1: 106; 2: 63; 3: 105

* * *

target: Fibroblast growth factor receptor 1 (Homo sapiens); details: at 10 µM
What residual activity was measured for each of the following?
One number for each entry, in %.

Recorded results for 6 compounds are shown here.
Would you mind telling me what residual activity value was observed for Cn1cc(/C=C2\C(=O)Nc3ccc(S(N)(=O)=O)cc32)c2ccccc21 ?
5

Subsequent entry: CC(C)n1cnc2c(NCc3ccccc3)nc(NCCCO)nc21
65

Subsequent entry: Cn1nc2c3c(cccc31)C(=O)c1ccccc1-2
66

Subsequent entry: COc1cccc(-c2cc(=O)c3ccccc3o2)c1N
105

Subsequent entry: Cc1nc(-c2ccccc2)c(-c2ccncc2)o1
83

Subsequent entry: O=C1c2ccccc2-[n+]2ccc3c([nH]c4ccccc43)c21
78

Dear colleague, could you send me residual activity for each of the items below? Thanks.
1. Oc1ccc(Nc2nc(-c3ccc(Cl)cc3)cs2)cc1
2. CCN(CC)C(=O)c1ccc(Nc2nc(OCC3CCCCC3)c3nc[nH]c3n2)cc1
3. CN(C)CCCn1cc(C2=C(c3c[nH]c4ccccc34)C(=O)NC2=O)c2ccccc21
4. O=[N+]([O-])c1ccc(-c2nc(-c3ccc(F)cc3)c(-c3ccncc3)[nH]2)cc1
5. CC(=O)O/N=C1\C(=C2\C(=O)Nc3cc(Br)ccc32)Nc2ccccc21

1: 86; 2: 2; 3: 3; 4: 82; 5: 0

Dear colleague, could you send me residual activity for each of the items below? Thanks.
1. O=c1c2ccccc2[nH]c(=S)n1CCN1CCC(=C(c2ccc(F)cc2)c2ccc(F)cc2)CC1
2. Oc1ccc(-c2nc(-c3ccc(F)cc3)c(-c3ccncc3)[nH]2)cc1
3. C[C@@H](N)[C@H]1CC[C@H](C(=O)Nc2ccncc2)CC1
4. CCN(CC)CCCCN1c2ccccc2Oc2ccc(Cl)cc21
5. O=C1Nc2cc(Br)ccc2/C1=C1/Nc2ccccc2/C1=N\O
6. Cc1cncc2cccc(S(=O)(=O)N3CCCN(C(=O)CN)C[C@H]3C)c12
7. O=C(O)c1ccc2c3c1cccc3c(=O)n1c3ccccc3nc21
8. CCC(=O)Nc1ccc2ncnc(Nc3cccc(Br)c3)c2c1

1: 49; 2: 41; 3: 98; 4: 82; 5: 3; 6: 20; 7: 75; 8: 84

Dear colleague, could you send me residual activity for each of the items below? Thanks.
1. CO[C@H]1[C@@H](OC)C[C@H](C)[C@@H](OC)C2=CC(=O)C=C(NC(=O)/C(C)=C/C=C/[C@H](OC)[C@@H](OC(N)=O)/C(C)=C/[C@@H]1C)C2=O
2. c1ccc(-c2n[nH]cc2-c2ccnc3ccccc23)nc1
3. CC[n+]1c(/C=C/N(C)c2ccccc2)n(-c2ccccc2)c2ccc(-c3nc4ccccc4s3)cc21

[93, 72, 55]

* * *

What residual activity was measured for each of the following?
target: Protein kinase C zeta type (Homo sapiens) (UniProt Q05513); conditions: at 10 µM
Sequence (Q05513 whole entry): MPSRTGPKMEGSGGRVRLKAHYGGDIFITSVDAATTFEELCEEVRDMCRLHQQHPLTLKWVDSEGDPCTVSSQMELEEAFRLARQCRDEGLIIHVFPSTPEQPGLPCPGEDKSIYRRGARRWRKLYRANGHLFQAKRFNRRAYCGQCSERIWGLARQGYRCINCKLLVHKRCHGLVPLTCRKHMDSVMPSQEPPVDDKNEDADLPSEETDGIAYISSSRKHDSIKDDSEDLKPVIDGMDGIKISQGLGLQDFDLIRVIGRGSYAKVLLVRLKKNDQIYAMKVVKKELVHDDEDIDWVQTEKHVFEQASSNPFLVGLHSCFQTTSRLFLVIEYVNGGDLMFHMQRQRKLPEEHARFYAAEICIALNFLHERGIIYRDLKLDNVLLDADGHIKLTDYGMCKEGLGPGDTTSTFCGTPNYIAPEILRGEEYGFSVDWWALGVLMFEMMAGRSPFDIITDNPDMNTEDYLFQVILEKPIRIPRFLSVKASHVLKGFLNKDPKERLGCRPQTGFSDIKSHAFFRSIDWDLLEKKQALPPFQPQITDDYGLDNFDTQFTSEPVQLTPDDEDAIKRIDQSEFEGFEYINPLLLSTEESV
Give bare numbers, in %.

Recorded results for 6 molecules are shown here.
Would you mind telling me what residual activity value was observed for O=c1cc(-c2cccc3c2Sc2ccccc2S3)oc(N2CCOCC2)c1 ?
100

Subsequent entry: COc1ccc(CNc2nc(N(CCO)CCO)nc3c2ncn3C(C)C)cc1
95

Subsequent entry: CNc1cc2c(Nc3cccc(Br)c3)ncnc2cn1
118

Subsequent entry: CC[n+]1c(/C=C/N(C)c2ccccc2)n(-c2ccccc2)c2ccc(-c3nc4ccccc4s3)cc21
96

Subsequent entry: O=C1Nc2ccc(Br)cc2/C1=C\c1cc2c([nH]1)CCCC2
102

Subsequent entry: CCN(CC)C(=O)c1ccc(Nc2nc(OCC3CCCCC3)c3nc[nH]c3n2)cc1
95

Dear colleague, could you send me residual activity for each of the items below? Thanks.
1. CC(=O)c1ccc(N2CCOCC2)cc1O
2. CC(C)n1cnc2/c(=N/c3cccc(Cl)c3)nc(NCCO)[nH]c21
3. NC(=O)c1ccc2[nH]c(-c3ccc(Oc4ccc(Cl)cc4)cc3)nc2c1
4. Cn1cc(/C=C2\C(=O)Nc3ccc(S(N)(=O)=O)cc32)c2ccccc21
5. Cc1nc(-c2ccccc2)c(-c2ccncc2)o1
6. COc1cc2ncnc(Nc3ccc(NC(=O)c4ccccc4)cc3)c2cc1OC
7. N#CCCc1ccc2c(c1)-c1[nH]c3ccc([N+](=O)[O-])cc3c1CC(=O)N2
8. N#Cc1cnc2cnc(NCc3cccnc3)cc2c1Nc1ccc(F)c(Cl)c1

1. 106
2. 102
3. 100
4. 109
5. 112
6. 103
7. 41
8. 94

Numbers sourced from ChEMBL document CHEMBL2218924.
